- protocol-summary: Fraction unbound in rat plasma
- Format: ADME, cell-free
observation-type: fraction unbound

INSERT INTO measurements (sample_smiles, test_value) VALUES
  ('CCS(=O)(=O)c1cnc2c(c1)-c1cn(C)c(=O)cc1OCCCCc1cc(Cl)ccc1O2', 0.09),
  ('CCS(=O)(=O)Nc1cnc2c(c1)-c1cn(C)c(=O)cc1OCCCCc1cc(Cl)ccc1O2', 0.12),
  ('Cn1cc2c(cc1=O)OCCCCc1cc(Cl)ccc1Oc1ncc(CS(C)(=O)=O)cc1-2', 0.24),
  ('CCS(=O)(=O)Nc1ccc2c(c1)-c1cn(C)c(=O)cc1OCCCCc1cc(Cl)ccc1O2', 0.02);
